# assay-summary: Permeability of the compound assessed as compound influx measured after 16 hrs by PAMPA assay
# Type: ADME
metric: permeability (%)

(a) O=C(O)c1ccc(C2CC2c2ccc(OCc3c(-c4c(Cl)cccc4Cl)noc3C3CC3)cc2Cl)cc1 (racemic)
(b) O=C(O)c1cccc(N2CC(O)(c3ccc(OCc4c(-c5c(Cl)cccc5Cl)noc4C4CC4)cc3Cl)C2)c1
QUERY: // which entry has the larger permeability value, a or b ? Please reply using the label of the selected record.
RESULT: b

(P) O=C(O)c1cccc([C@H]2C[C@](O)(c3ccc(OCc4c(-c5c(Cl)cccc5Cl)noc4C4CC4)cc3Cl)C2)c1
(Q) O=C(O)c1cncc(N2CC(O)(c3ccc(OCc4c(-c5c(Cl)cccc5Cl)noc4C4CC4)cc3Cl)C2)c1
QUERY: Which is greater in permeability, the first item P or the second item Q ? Bench note: the answer is the label of the chosen record.
RESULT: Q
(Q: 35%, P: 24%)

----------
# assay-summary: Oral bioavailability in C57BL/6J mouse at 5 mg/kg
# Format: ADME, organism-based
# assay-context: in vivo
metric: bioavailability (%)

- molecule: "O=C(O)c1ccc(C2CC2c2ccc(OCc3c(-c4c(Cl)cccc4Cl)noc3C3CC3)cc2Cl)cc1 (racemic)"
  measurement-unit: "%"
  reported-result: 44
- molecule: "O=C(O)c1ccc([C@H]2C[C@](O)(c3ccc(OCc4c(-c5c(Cl)cccc5Cl)noc4C4CC4)cc3Cl)C2)cc1"
  measurement-unit: "%"
  reported-result: 41
- molecule: "O=C(O)c1cccc(C2CC2c2ccc(OCc3c(-c4c(Cl)cccc4Cl)noc3C3CC3)cc2Cl)c1 (racemic)"
  measurement-unit: "%"
  reported-result: 53

(A) O=C(O)c1cccc([C@H]2C[C@](O)(c3ccc(OCc4c(-c5c(Cl)cccc5Cl)noc4C4CC4)cc3Cl)C2)c1
(B) CC(C)n1nc(C(=O)O)cc1[C@H]1C[C@](O)(c2ccc(OCc3c(-c4c(Cl)cccc4Cl)noc3C3CC3)cc2Cl)C1
(C) CC(C)n1nc(C(=O)O)cc1C1CC1c1ccc(OCc2c(-c3c(Cl)cccc3Cl)noc2C2CC2)cc1Cl (racemic)
QUERY: Task for the reader: rank each entry by its bioavailability, from the minimum upward. Kindly provide the labels arranged according to the requested ordering.
RESULT: C, B, A

----------
# system-under-test: Bile acid receptor (Homo sapiens) (UniProt Q96RI1)
# Sequence (Q96RI1 whole entry, the tested form may be a part): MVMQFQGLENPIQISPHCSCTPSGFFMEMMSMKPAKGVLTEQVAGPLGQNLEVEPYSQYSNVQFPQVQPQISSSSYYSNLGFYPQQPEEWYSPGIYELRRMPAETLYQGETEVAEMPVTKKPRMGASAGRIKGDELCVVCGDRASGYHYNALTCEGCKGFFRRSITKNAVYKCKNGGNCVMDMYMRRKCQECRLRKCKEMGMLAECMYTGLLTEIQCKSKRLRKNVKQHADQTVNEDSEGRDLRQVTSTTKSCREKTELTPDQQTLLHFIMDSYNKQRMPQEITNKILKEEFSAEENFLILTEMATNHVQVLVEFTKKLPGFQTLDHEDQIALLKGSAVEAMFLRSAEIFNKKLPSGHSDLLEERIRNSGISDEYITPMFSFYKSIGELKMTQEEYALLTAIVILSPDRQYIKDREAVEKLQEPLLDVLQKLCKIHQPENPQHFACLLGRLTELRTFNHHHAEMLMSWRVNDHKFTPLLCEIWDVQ
# assay-summary: Agonist activity at GST-tagged FXR LBD (187 to 472 residues) (unknown origin) assessed as FXR interaction with b-CPSSHSSLTERHKILHRLLQEGSPS-COOH by FRET assay relative to GW4064
metric: Efficacy (%)

- compound: "CC(C)n1nc(C(=O)O)cc1[C@H]1C[C@](O)(c2ccc(OCc3c(-c4c(Cl)cccc4Cl)noc3C3CC3)cc2Cl)C1"
  Efficacy (%): 100
- compound: "O=C(O)c1ccc([C@H]2C[C@@H]2c2ccc(OCc3c(-c4c(Cl)cccc4Cl)noc3C3CC3)cc2Cl)cc1"
  Efficacy (%): 100
- compound: "Cn1nc(C(=O)O)c2ccc(C3CC3c3ccc(OCc4c(-c5c(Cl)cccc5Cl)noc4C4CC4)cc3Cl)cc21 (racemic)"
  Efficacy (%): 104
- compound: "O=C(O)c1ccc(C2CC2c2ccc(OCc3c(-c4c(Cl)cccc4Cl)noc3C3CC3)cc2Cl)cn1 (configuration not stated)"
  Efficacy (%): 101
- compound: "O=C(NCCS(=O)(=O)O)c1ccc(C2CC2c2ccc(OCc3c(-c4c(Cl)cccc4Cl)noc3C3CC3)cc2Cl)cc1 (racemic)"
  Efficacy (%): 98
- compound: "O=C(O)c1cccc([C@H]2C[C@@H](c3ccc(OCc4c(-c5c(Cl)cccc5Cl)noc4C4CC4)cc3Cl)C2)c1"
  Efficacy (%): 99
- compound: "O=C(O)c1cccc(N2CC(O)(c3ccc(OCc4c(-c5c(Cl)cccc5Cl)noc4C4CC4)cc3Cl)C2)c1"
  Efficacy (%): 97
